- tgt: Glucocorticoid receptor (Homo sapiens) (UniProt P04150)
- Sequence (P04150 whole entry, looked up): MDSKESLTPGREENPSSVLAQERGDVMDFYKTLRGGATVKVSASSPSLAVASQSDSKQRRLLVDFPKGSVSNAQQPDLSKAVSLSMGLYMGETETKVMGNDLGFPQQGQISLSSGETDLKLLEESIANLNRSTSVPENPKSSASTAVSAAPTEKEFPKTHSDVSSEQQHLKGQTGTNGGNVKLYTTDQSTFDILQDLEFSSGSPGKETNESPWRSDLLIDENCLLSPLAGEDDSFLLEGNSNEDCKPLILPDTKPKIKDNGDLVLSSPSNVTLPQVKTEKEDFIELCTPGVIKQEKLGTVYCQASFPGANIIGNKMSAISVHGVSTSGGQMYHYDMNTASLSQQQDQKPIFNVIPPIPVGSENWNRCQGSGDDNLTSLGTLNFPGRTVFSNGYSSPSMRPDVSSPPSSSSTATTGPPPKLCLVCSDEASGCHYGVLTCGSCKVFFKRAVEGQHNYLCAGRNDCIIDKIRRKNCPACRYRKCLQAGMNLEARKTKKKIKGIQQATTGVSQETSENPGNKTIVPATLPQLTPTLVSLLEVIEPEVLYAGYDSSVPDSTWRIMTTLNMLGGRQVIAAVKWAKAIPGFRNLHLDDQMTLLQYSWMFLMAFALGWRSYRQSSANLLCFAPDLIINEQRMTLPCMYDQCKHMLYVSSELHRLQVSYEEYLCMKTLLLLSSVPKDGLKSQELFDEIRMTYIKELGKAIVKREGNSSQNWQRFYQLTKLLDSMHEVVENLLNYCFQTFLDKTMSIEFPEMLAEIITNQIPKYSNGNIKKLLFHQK
- method.description: qHTS assay to identify small molecule antagonists of the glucocorticoid receptor (GR) signaling pathway (AID 720692)
- experimental.context: GR-bla HeLa, beta-lactamase FRET ratio, dexamethasone-stimulated, 18 h; series mostly up to 58.5 µM
Records with an inconclusive call do not appear. Calls of active or inactive are those of the source. Calls follow the shape of the dose curve; as a rule, active = well fitted inhibition curve with a large enough effect in the signal ratio in the repeat runs (not every such curve was filed as active); inconclusive = weak or mixed curves, or effect the other way; inactive = no such curve, though single readings can be large or run the other way; the % refers to the signal ratio.
Classes used: active, inactive

molecule	class.label
CCOP(=S)(OCC)SCn1c(=O)oc2cc(Cl)ccc21	inactive
Brc1ccc(Br)cc1	inactive
COc1ccc(O)c(C(C)(C)C)c1	inactive
CCC/C=N/O	inactive
Cc1ccc(N=CN(C)C=Nc2ccc(C)cc2C)c(C)c1	inactive
O=P(OCCCl)(OCCCl)OCCCl	inactive
CN(C)c1ccccc1	inactive
ClC(Cl)=C(Cl)C(Cl)=C(Cl)Cl	inactive
CC(C)(C#N)N=NC(C)(C)C#N	inactive
CCCCOC(=O)COC(=O)c1ccccc1C(=O)OCCCC	inactive
O=[N+]([O-])/N=C1\NCCN1Cc1ccc(Cl)nc1	inactive
CNC(=S)S	inactive
OC(c1ccc(Cl)cc1)(c1cncnc1)c1ccccc1Cl (stereo not given)	active
ClCc1ccccn1	inactive
CC(C)CON=O	inactive
